ATP-binding cassette sub-family C member 8 (Homo sapiens): recorded Kd for assorted compounds
Sequence (Q09428 whole entry): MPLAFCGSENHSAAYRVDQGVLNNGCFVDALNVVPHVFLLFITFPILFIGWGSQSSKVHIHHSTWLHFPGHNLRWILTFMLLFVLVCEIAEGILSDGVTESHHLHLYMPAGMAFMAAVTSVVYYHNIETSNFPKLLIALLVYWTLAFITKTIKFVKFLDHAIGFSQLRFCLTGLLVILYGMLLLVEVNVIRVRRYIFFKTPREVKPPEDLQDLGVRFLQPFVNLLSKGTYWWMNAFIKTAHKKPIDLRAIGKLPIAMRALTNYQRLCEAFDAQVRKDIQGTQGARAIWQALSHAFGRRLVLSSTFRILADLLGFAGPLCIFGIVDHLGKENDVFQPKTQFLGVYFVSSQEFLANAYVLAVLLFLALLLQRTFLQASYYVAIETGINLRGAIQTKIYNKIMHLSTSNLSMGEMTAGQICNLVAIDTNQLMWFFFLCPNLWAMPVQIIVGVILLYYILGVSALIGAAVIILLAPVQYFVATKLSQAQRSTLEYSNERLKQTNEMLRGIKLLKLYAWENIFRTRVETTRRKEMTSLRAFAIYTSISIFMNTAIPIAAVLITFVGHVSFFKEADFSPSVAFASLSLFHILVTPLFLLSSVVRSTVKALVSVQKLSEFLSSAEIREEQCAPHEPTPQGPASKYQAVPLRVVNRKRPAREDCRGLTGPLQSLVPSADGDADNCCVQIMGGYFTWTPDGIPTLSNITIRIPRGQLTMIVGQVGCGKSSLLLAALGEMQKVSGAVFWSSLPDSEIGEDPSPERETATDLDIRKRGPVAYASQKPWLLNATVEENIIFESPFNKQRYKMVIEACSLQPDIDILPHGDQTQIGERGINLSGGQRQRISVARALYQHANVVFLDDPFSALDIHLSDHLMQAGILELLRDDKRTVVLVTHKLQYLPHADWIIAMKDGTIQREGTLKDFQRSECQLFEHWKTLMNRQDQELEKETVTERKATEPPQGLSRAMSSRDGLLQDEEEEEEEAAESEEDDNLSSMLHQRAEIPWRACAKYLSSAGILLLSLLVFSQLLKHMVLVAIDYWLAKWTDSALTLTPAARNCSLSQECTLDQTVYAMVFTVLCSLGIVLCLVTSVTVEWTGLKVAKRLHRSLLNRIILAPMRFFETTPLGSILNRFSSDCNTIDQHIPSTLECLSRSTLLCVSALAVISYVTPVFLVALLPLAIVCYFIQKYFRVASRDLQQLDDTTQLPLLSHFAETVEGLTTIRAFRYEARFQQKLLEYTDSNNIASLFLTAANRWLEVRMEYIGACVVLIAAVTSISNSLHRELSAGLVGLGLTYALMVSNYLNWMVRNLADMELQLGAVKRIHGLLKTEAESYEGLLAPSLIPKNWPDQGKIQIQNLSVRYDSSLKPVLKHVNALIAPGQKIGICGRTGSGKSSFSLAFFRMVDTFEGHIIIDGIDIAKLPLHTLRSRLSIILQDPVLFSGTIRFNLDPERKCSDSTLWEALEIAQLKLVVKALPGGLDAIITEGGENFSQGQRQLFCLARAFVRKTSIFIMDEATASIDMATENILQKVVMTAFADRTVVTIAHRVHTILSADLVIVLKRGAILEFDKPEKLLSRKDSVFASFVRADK
readoutLabel: Kd (nM)

[A] CCOc1cc(CC(=O)N[C@@H](CC(C)C)c2ccccc2N2CCCCC2)ccc1C(=O)O [REPAGLINIDE]
[B] COc1cc(CC(=O)N[C@@H](CC(C)C)c2ccccc2N2CCCCC2)ccc1C(=O)O
[C] CC(C)C[C@H](NC(=O)Cc1ccc(C(=O)O)c(OCCF)c1)c1ccccc1N1CCCCC1
Rank the listed compounds according to Kd, from the largest value downward. Dear reader, please state the labels in the requested order. C, B, A

====

molecular target: UniProt Q09428; assay: In vitro displacement of [3H]glibenclamide (IC50=0.61) from COS-1 cells expressing Sulfonylurea receptor 1 (SUR-1)
readoutLabel: IC50 (nM)

[P] COc1cc(CC(=O)N[C@@H](CC(C)C)c2ccccc2N2CCCCC2)ccc1C(=O)O
[Q] CCOc1cc(CC(=O)N[C@@H](CC(C)C)c2ccccc2N2CCCCC2)ccc1C(=O)O [REPAGLINIDE]
[R] CC(C)C[C@H](NC(=O)Cc1ccc(C(=O)O)c(OCCF)c1)c1ccccc1N1CCCCC1
Please list these molecules in decreasing order of IC50. // respond by listing labels in the order requested R, P, Q
